Tested on: COLO 205 colon
Experiment: NCI tumour cell line growth inhibition, 48 h
REPORTED_METRIC: TGI

Past entries and their recorded results:
Data request: # lookup: TGI of C#CC1/C(=C\C(=O)OC)CCCC1O (configuration not stated)
Data returned: > 100 µM

Data request: Record request: TGI value, item CC1(C)OC[C@@H](O)[C@H](C#N)CO1
Data returned: > 100 µM

Data request: What value of TGI has been reported for the following compound? c1ccc2c(OCCSCCCCCCCCCCSCCOc3cccc4ccccc34)cccc2c1
Data returned: > 100 µM

Data request: Name the reported TGI value associated with the compound O=C1c2cc(-c3ccccc3)cnc2S(=O)(=O)N1c1ccc(Br)cc1
Data returned: > 100 µM

Data request: GET /values?readout=TGI&item= CC(NC(=O)Cc1ccccc1)NC(=O)C(C)C(=O)Nc1ccccc1 (configuration not stated)
Data returned: > 100 µM

Data request: Query (compound): O=C(O)CN1CCN2CCCCCN(CC1)CCN(CC(=O)O)CC2 ; field requested: TGI
Data returned: > 100 µM

Give measured TGI for every item shown.
1. N#C/C(=C\c1ccc2ccccc2c1)C(=O)c1ccccc1
2. O=C(NC[C@H](O)CN1CCc2ccccc2C1)c1cc(NC2COC2)ncn1

Data returned:
1. > 100 µM
2. > 100 µM

For every listed record, write down its TGI.
1. COc1ccc(N2C(=O)CC(=O)N(NC(=O)C(C)Oc3ccccc3C)C2=S)cc1 (configuration not stated)
2. CN(C)C(=S)/N=c1\sn(C)/c(=N\C(=S)N(C)C)n1C
3. CC1(C)[C@@H]2CC[C@@]1(C)CN(CCC[N+](C)(C)C)C2
4. CC(=O)Nc1ccc(-c2csc(Nc3cccc(-c4csc(C)n4)c3)n2)cc1
5. Cc1ccc(S(=O)(=O)n2c3c(c4ccccc42)CCN2C[C@H]([C@H](C)Br)CC[C@@H]32)cc1
6. Cc1c(N(C)C)ccc2c(=O)c3cccc(CC(=O)O)c3oc12
7. COC(=O)[C@]12CC[C@@H](C)[C@H](C)[C@@H]1C1=CC[C@@H]3[C@@]4(C)C[C@@H](O)[C@H](O)[C@@](C)(CO)C4=CC[C@@]3(C)[C@]1(C)CC2

Data returned:
1: > 100 µM; 2: > 100 µM; 3: > 100 µM; 4: > 50 µM; 5: > 100 µM; 6: > 100 µM; 7: 34.4 µM

State recorded TGI for all listed compounds.
1. CCn1c(O)c(/C=N/NC(=O)C(C)c2ccc(CC(C)C)cc2)sc1=S (configuration not stated)
2. CN1C(=O)c2ccccc2NC(=O)C12O[C@@H]2c1ccccc1 (some centres not stated)

Data returned:
["9.04 µM", "> 100 µM"]

###

System: TK-10 renal
Assay: NCI tumour cell line growth inhibition, 48 h
REPORTED_METRIC: TGI

Below are worked cases with known answers.
Data request: Any idea what TGI came out for CCOS(C)(=O)=O on TK-10 renal?
Data returned: > 100 µM

Data request: What value of TGI on TK-10 renal does CCCCCC#CCOC(=O)C(=[N+]=[N-])P(=O)(c1ccccc1)c1ccccc1 have?
Data returned: > 10 µM

Data request: Give the reported TGI for COc1cnc2c(c1)C(=O)c1c-2n(CCCN2CCOCC2)c(=O)c2cc(Cl)ccc12 (system: TK-10 renal).
Data returned: > 100 µM

Data request: Param readout = TGI; param system = TK-10 renal; param query = NS(=O)(=O)c1ccc(N=Nc2c(O)c(C(=O)O)cc3ccccc23)cc1 ; response: value
Data returned: > 100 µM

# batch size: 8; output TGI per entry
1. O=C(/C=C/c1ccccc1)Oc1ccc(C(=O)/C=C/c2ccccc2)cc1
2. CN1CCOC1c1ccccc1O (stereo unspecified)
3. COC(=O)C1CCCC2(C1)OCCO2 (stereo unspecified)
4. COc1cccc(N2C(Cl)C(=O)C2c2c[nH]c3ccccc23)c1 (stereo unspecified)
5. O=C1OCC/C1=N/O
6. N#Cc1nn(-c2cc(=O)[nH]c3ccc(Cl)cc23)c(N)c1C#N
7. O=C(NC[C@H](O)CN1CCc2ccccc2C1)c1cc(NC2COC2)ncn1
8. CN(C)CCC(/C=C/c1ccccc1)=N\Nc1ccccc1

Data returned:
20.8 µM
> 100 µM
> 100 µM
> 100 µM
> 100 µM
> 100 µM
88.9 µM
4.61 µM

Report TGI for each item below.
1. CCOC(=O)c1nc2c(OC)nn(O)cc-2c1[N+](=O)[O-]
2. COc1ccc(C2OC(c3ccncc3)=NN2C)cc1F (stereo unspecified)
3. COC(=O)C(=Cc1cc(OC)c(OC)c(OC)c1-c1cc2c(cc1C1(C)OCCS1)OCO2)C(=O)OC (stereo unspecified)
4. COc1ccc2/c(=C/c3ccc(N(C)C)cc3)c3cc(-c4ccccc4)[n+](C)n3c2c1

Data returned:
1: 30 µM; 2: > 100 µM; 3: > 100 µM; 4: 1.43 µM

Batch lookup, TGI per entry.
1. O=C1c2cc(-c3ccccc3)cnc2S(=O)(=O)N1c1ccc(Br)cc1
2. Cc1c(O)nc(-n2[nH]c3c(c2=O)CCCC3)[nH]c1=O
3. CC1(C)OC2C(CO[Si](C)(C)C(C)(C)C)OC(n3c(I)c(C#C[Si](C)(C)C)c(=O)[nH]c3=O)C2O1 (stereo unspecified)

Data returned:
> 100 µM
> 100 µM
20 µM

Please state, for each entry, its recorded TGI.
1. N#CNC(=NCc1ccccc1)N(Cc1ccccc1)Cc1ccccc1
2. O=[N+]([O-])c1ccc2occ3c2c1CCC3

Data returned:
> 31.6 µM
> 100 µM

###

Test system: A549 NSCLC
Assay: NCI tumour cell line growth inhibition, 48 h
Task for the reader: assign each of the following compounds its reported TGI.

Data request: Which TGI is listed for NS(=O)(=O)c1ccc(NC(=S)/N=C/C2=C(O)c3ccccc3C2=O)cc1 ?
Data returned: > 100 µM

Data request: Can you share its TGI? I mean this compound: C=C(C(=O)OCC)C(=O)OCC
Data returned: > 100 µM

Continuing:
Data request: So what's the measured TGI for this one? CCC(C)(C)c1ccc(OCCCCNC(=O)c2ccc3ccccc3c2O)c(C(C)(C)CC)c1
Data returned: > 100 µM

###

Tested on: T-47D breast
Test: NCI tumour cell line growth inhibition, 48 h
REPORTED_METRIC: TGI

Data request: Data request, read-out TGI, for CC(NC(=O)Cc1ccccc1)NC(=O)C(C)C(=O)Nc1ccccc1 (stereo not given)
Data returned: > 100 µM

# per-item lookup of TGI; items listed below
1. O=c1oc2ccc(-c3ccc(F)cc3F)cc2c(=O)n1-c1cccc(C(F)(F)F)c1
2. CC(NCCC(c1ccccc1)c1ccccc1)c1ccccc1 (stereo not given)
3. C=C1C(=O)CC2C1CC(=O)/C(C)=C/CCC(C)(O)C2O (stereo not given)
4. COc1cc(Cl)cc(-c2nn(-c3cccc(NC(=O)c4ccc(N5CCOCC5)c(C(F)(F)F)c4)c3)cc2-c2ccncc2)c1
5. O=C(O)c1ccccc1CC(Cc1ccc2c(c1)CCC2)C(=O)O (stereo not given)

Data returned:
1. 3.29 µM
2. 3.29 µM
3. 3.96 µM
4. > 100 µM
5. > 100 µM

// for each compound in input: emit TGI
1. CCN1CCN(c2cc(C)c3cc(NC(=O)c4ccc(OC)c(OC)c4)ccc3n2)CC1
2. CC1(C)OC2C(CO[Si](C)(C)C(C)(C)C)OC(n3c(I)c(C#C[Si](C)(C)C)c(=O)[nH]c3=O)C2O1 (stereo not given)

Data returned:
1: > 100 µM; 2: 26.4 µM

###

System: CCRF-CEM leukemia
Assay: NCI tumour cell line growth inhibition, 48 h
REPORTED_METRIC: TGI

Data request: Please report the recorded TGI for COc1cccc(N2C(Cl)C(=O)C2c2c[nH]c3ccccc23)c1 (stereo not drawn) .
Data returned: > 100 µM

Data request: Look at this compound and give its reported TGI. C/C(N=NC(=S)N1CC2CCC(CC2)C1)=C1\C=CC=CN1O
Data returned: 1.29 µM

Data request: TGI for O=C(O)c1ccccc1CC(Cc1ccc2c(c1)CCC2)C(=O)O (stereo not drawn) ?
Data returned: > 100 µM

Data request: For the compound COc1cc(N(CCC#N)CCC#N)ccc1/C(N=Nc1ccc(Cl)cc1)=N/NC(=O)c1cc(Br)ccc1O , what TGI is on record?
Data returned: > 150 µg/mL

Give one value of TGI per listed compound.
1. C[C@H](CCC(=O)O)[C@H]1CC[C@H]2[C@@H]3C(=O)C[C@@H]4C[C@H](O)CC[C@]4(C)[C@H]3C[C@H](O)[C@]12C
2. COc1cc(N=Nc2ccc(O)c3ncccc23)c2ncccc2c1

Data returned:
["> 100 µM", "> 100 µM"]
